Tested on: PfHDP1 homeodomain (GST-tagged)
Assay: gcPBM binding intensity (ln(normalized median fluorescence intensity)); higher = stronger DNA binding
Whole data set: some 25,000 sequences, median “ln(normalized median fluorescence intensity)” near 6.7, cut for the highest 2% near 10. The sample holds the highest values, similar sequences and a random draw of the others, so the mix is not that of the screen.
For each record, write down the corresponding gcPBM binding intensity (ln).
One number for each entry.

{"Sequence String": "CTTTTTTTTTGATGTTGTACATATATATTATATAAT [XGTACX_site1321]", "Numeric Readout": 6.9}
{"Sequence String": "TTACAAGTAAAAGGTACACACATTATAAATACAAAT [CACACA_site4752]", "Numeric Readout": 6.93}
{"Sequence String": "ACATAAAATTGGAGCAAACACACAAGGTTGAAATTA [CACACA_site505]", "Numeric Readout": 7.16}

Answer for every listed entry: what is its gcPBM binding intensity (ln)? The entries follow.
1. TATATATTATATATATGTACATATTGTTGTGTATAT [XGTACX_site767]
2. GTTGTTATATAAAATTGTACATAAAAAACAAAATAT [XGTACX_site5313]

1: 7.15; 2: 6.8
